# TARGET ENTITY: T1, EsCas13d, nuclease-dead (Eubacterium siraeum, UniProt B0MS50, R295A;H300A;R849A;H854A)
# T1 sequence: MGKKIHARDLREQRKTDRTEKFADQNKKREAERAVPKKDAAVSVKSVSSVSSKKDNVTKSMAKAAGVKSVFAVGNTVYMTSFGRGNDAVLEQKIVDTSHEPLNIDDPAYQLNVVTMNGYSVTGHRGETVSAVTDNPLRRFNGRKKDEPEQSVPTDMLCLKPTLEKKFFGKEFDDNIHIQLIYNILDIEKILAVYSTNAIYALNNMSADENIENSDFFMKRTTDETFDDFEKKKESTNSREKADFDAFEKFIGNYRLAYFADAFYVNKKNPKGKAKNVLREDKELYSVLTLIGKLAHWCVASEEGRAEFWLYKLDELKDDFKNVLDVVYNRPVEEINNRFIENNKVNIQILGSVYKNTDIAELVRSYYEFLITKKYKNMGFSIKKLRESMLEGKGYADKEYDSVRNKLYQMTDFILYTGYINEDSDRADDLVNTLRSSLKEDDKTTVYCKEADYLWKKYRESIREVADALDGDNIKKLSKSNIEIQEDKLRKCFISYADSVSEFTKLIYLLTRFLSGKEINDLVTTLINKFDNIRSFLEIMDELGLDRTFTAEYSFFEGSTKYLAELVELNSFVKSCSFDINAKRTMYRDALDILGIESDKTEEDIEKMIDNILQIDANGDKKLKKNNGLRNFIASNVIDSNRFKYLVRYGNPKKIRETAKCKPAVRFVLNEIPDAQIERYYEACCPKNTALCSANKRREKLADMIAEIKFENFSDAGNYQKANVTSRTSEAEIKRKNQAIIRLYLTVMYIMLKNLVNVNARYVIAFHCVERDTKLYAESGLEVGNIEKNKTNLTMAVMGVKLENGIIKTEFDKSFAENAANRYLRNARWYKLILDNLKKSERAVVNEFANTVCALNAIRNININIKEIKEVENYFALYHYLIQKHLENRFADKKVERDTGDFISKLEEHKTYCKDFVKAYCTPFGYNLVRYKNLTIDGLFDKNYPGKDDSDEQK
# EXPERIMENT NOTES: crRNA (strand 1, pre-loaded); Mg2+; 40 mM Tris-HCl pH 7.5, 150 mM NaCl, 6 mM MgCl2, 1 mM DTT, 0.1% Tween-20, 0.2 mg/ml BSA; 25 C; 10 min per concentration, then washed
# TEST PARAMETERS: tags: His6-TwinStrep-SUMO cleaved; N-terminal SNAP kept (SNAP-Surface 488); label: 3' end held by stalled T7 RNA polymerase
QUANTITY MEASURED: pKd
API: returns pKd as number; meaning -log10 of concentration in mol/L.

Reference set, count: 10
[
  {
    "BINDER": "target 1 insU 3' of 9,insA 3' of 8 (mixed) RNA 1: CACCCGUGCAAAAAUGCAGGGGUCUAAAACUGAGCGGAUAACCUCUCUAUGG RNA 2: GGGAAUGGAUCCACAUCUACGAAUUCGUACCAUAGAGAGGUUAUUACCGCUCACCGAGAUCGGAAGAGCACACGU",
    "QUANTITY MEASURED": "pKd",
    "ASSAY VALUE": 8.01
  },
  {
    "BINDER": "target 1 MT 5'PFS AAA 3'PFS AGA (mixed) RNA 1: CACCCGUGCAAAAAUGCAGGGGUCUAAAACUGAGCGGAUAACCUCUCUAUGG RNA 2: GGGAAUGGAUCCACAUCUACGAAUUCAAACCAUAGAGAGGUUAUCCGCUCAAGAAGAUCGGAAGAGCACACGU",
    "QUANTITY MEASURED": "pKd",
    "ASSAY VALUE": 7.48
  },
  {
    "BINDER": "target 2 MT 5'PFS GAU 3'PFS AGA (mixed) RNA 1: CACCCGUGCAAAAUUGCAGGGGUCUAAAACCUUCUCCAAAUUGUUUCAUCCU RNA 2: GGGAAUGGAUCCACAUCUACGAAUUCGAUAGGAUGAAACAAUUUGGAGAAGAGAAGAUCGGAAGAGCACACGU",
    "QUANTITY MEASURED": "pKd",
    "ASSAY VALUE": 8.10
  },
  {
    "BINDER": "target 1 MT 5'PFS GUA 3'PFS AGC (mixed) RNA 1: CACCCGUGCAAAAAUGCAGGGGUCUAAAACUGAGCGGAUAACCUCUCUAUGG RNA 2: GGGAAUGGAUCCACAUCUACGAAUUCGUACCAUAGAGAGGUUAUCCGCUCAAGCAGAUCGGAAGAGCACACGU",
    "QUANTITY MEASURED": "pKd",
    "ASSAY VALUE": 8.20
  },
  {
    "BINDER": "target 1 C4G,G12U (mixed) RNA 1: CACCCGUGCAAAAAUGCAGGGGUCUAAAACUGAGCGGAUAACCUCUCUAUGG RNA 2: GGGAAUGGAUCCACAUCUACGAAUUCGUACCAUAGAGAGUUUAUCCGGUCACCGAGAUCGGAAGAGCACACGU",
    "QUANTITY MEASURED": "pKd",
    "ASSAY VALUE": 8.02
  },
  {
    "BINDER": "target 1 MT 5'PFS GCU 3'PFS CGC (mixed) RNA 1: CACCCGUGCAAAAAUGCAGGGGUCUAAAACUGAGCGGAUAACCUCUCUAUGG RNA 2: GGGAAUGGAUCCACAUCUACGAAUUCGCUCCAUAGAGAGGUUAUCCGCUCACGCAGAUCGGAAGAGCACACGU",
    "QUANTITY MEASURED": "pKd",
    "ASSAY VALUE": 7.37
  },
  {
    "BINDER": "target 1 insG 3' of 21,insU 3' of 21 (mixed) RNA 1: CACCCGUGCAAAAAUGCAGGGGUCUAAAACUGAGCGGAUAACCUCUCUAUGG RNA 2: GGGAAUGGAUCCACAUCUACGAAUUCGUACCGUAUAGAGAGGUUAUCCGCUCACCGAGAUCGGAAGAGCACACGU",
    "QUANTITY MEASURED": "pKd",
    "ASSAY VALUE": 7.77
  },
  {
    "BINDER": "target 1 insA 3' of 13,insG 3' of 6 (mixed) RNA 1: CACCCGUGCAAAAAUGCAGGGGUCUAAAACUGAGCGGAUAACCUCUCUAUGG RNA 2: GGGAAUGGAUCCACAUCUACGAAUUCGUACCAUAGAGAGAGUUAUCCGGCUCACCGAGAUCGGAAGAGCACACGU",
    "QUANTITY MEASURED": "pKd",
    "ASSAY VALUE": 8.41
  },
  {
    "BINDER": "target 1 insU 3' of 22,insU 3' of 20 (mixed) RNA 1: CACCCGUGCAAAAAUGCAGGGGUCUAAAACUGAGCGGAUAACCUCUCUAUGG RNA 2: GGGAAUGGAUCCACAUCUACGAAUUCGUACUCAUUAGAGAGGUUAUCCGCUCACCGAGAUCGGAAGAGCACACGU",
    "QUANTITY MEASURED": "pKd",
    "ASSAY VALUE": 7.20
  },
  {
    "BINDER": "target 1 insA 3' of 15,insC 3' of 14 (mixed) RNA 1: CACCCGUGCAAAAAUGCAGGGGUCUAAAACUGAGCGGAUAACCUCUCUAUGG RNA 2: GGGAAUGGAUCCACAUCUACGAAUUCGUACCAUAGAGAACGGUUAUCCGCUCACCGAGAUCGGAAGAGCACACGU",
    "QUANTITY MEASURED": "pKd",
    "ASSAY VALUE": 7.83
  }
]

Sample target 2 MT 5'PFS GAG 3'PFS AUG (mixed) RNA 1: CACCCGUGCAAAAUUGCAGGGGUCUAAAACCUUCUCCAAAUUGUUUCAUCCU RNA 2: GGGAAUGGAUCCACAUCUACGAAUUCGAGAGGAUGAAACAAUUUGGAGAAGAUGAGAUCGGAAGAGCACACGU ; pKd observed: 8.23

Sample target 1 C6G,G12A (mixed) RNA 1: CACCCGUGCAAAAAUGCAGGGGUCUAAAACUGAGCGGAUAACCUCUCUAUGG RNA 2: GGGAAUGGAUCCACAUCUACGAAUUCGUACCAUAGAGAGAUUAUCGGCUCACCGAGAUCGGAAGAGCACACGU ; pKd observed: 7.97

Sample target 1 insA 3' of 6,insA 3' of 5 (mixed) RNA 1: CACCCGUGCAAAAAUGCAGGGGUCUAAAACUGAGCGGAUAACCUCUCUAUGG RNA 2: GGGAAUGGAUCCACAUCUACGAAUUCGUACCAUAGAGAGGUUAUCCAGACUCACCGAGAUCGGAAGAGCACACGU ; pKd observed: 7.28

Sample target 1 G5U,U10C (mixed) RNA 1: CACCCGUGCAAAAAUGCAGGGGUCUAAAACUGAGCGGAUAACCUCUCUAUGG RNA 2: GGGAAUGGAUCCACAUCUACGAAUUCGUACCAUAGAGAGGUCAUCCUCUCACCGAGAUCGGAAGAGCACACGU ; pKd observed: 7.02
